src = patent US20200339544A1

target: DM EGFR (DoubleMutantEGFR, L828R/T790M) (Homo sapiens, UniProt P00533, L858R/T790M); construct: purchased SignalChem; assay: Inhibition of DM EGFR kinase activity (ADP-Glo); type: biochemical; details: selectivity index, kinase EGFR WT vs EGFR DM
OBSERVATION_TYPE: SI, IC50(WT)/IC50(DM)

Solved entries (count: 5):
C=CC(=O)Nc1cc(Nc2nccc(C(=O)c3ccc(N4CCC[C@@H](OC)C4)cc3)n2)c(OC)cc1N(C)CCN(C)C: 79.88
C=CC(=O)Nc1cc(Nc2nccc(C(=O)c3ccc(OC)cc3)n2)c(OC)cc1N(C)CCN(C)C: 20.33
C=CC(=O)Nc1cc(Nc2nccc(C(=O)c3ccc(OC4CC4)cc3)n2)c(OC)cc1N(C)CCN(C)C: 19.99
C=CC(=O)Nc1cc(Nc2nccc(C(=O)c3ccc(N4CCC(N)CC4)cc3)n2)c(OC)cc1N(C)CCN(C)C: 24.30
C=CC(=O)Nc1cc(Nc2nccc(C(=O)c3ccc(N4CCC(N)CC4)cc3OC)n2)c(OC)cc1N(C)CCN(C)C: 10.62

a: C=CC(=O)Nc1cc(Nc2cc(C(=O)c3ccc(OCC(C)C)cc3)ccn2)c(OC)cc1N(C)CCN(C)C
b: C=CC(=O)Nc1cc(Nc2nccc(C(=O)c3ccccc3Br)n2)c(OC)cc1N(C)CCN(C)C
### Prompt Endpoint returns whichever of a and b has the numerically higher SI, IC50(WT)/IC50(DM). // return label of chosen record
### Response b

a: C=CC(=O)Nc1cc(Nc2nccc(C(=O)c3ccc(Br)cc3)n2)c(OC)cc1N(C)CCN(C)C
b: C=CC(=O)Nc1cc(Nc2nccc(C(=O)c3ccc(OCCC)cc3)n2)c(OC)cc1N(C)CCN(C)C
### Prompt Could you check which of a and b has a smaller value for SI, IC50(WT)/IC50(DM)? // return label of chosen record
### Response a
(a: 6.22, b: 79.77)

P: C=CC(=O)Nc1cc(Nc2nccc(C(=O)c3ccc(N4CC[C@H](OC)C4)cc3)n2)c(OC)cc1N(C)CCN(C)C
Q: C=CC(=O)Nc1cc(Nc2cc(C(=O)c3ccccc3OC)ccn2)c(OC)cc1N(C)CCN(C)C
### Prompt Could you check which of P and Q has a smaller value for SI, IC50(WT)/IC50(DM)? // return label of chosen record
### Response Q
